# System: KRAS-mutant PDC multicell tumor spheroid viability;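 also: viability read after seven days of drug exposure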
# PROTOCOL DETAILS: Anticancer human tumor 521955-158-R2-J5-PDC patient-derived pancreatic carcinoma cell line growth inhibition [KRAS2]; active = viability on the fitted dose curve at most 10% of control; inactive = the rest
# CONDITIONS: second compound 10 µM; first compound 3.16 µM
# Text: Multicellular complex tumor spheroid response to RAS pathway inhibitors in combination with a targeted agents in patient-derived cell lines with oncogenic KRAS variants from multiple cancer types A high-throughput screen of multi-cell type tumor spheroids was designed to identify active combinations of targeted small molecules and KRAS pathway inhibitors. […] Compounds. […] If the clinical Cmax for an agent had not been determined, the highest concentration tested was 10 microM. […]
Classes used: active, inactive

CC1OCC2(CCN(c3cnc(Sc4ccnc(N)c4Cl)c(N)n3)CC2)C1N (stereo not given) + CNCc1ccccc1-c1csc(C(C)Nc2nc(C)nc3cc(OC)c(OC)cc23)c1 :: active
CC(=O)OC12COC1CC(O)C1(C)C(=O)C(O)C3=C(C)C(OC(=O)C(O)C(NC(=O)OC(C)(C)C)c4ccccc4)CC(O)(C(OC(=O)c4ccccc4)C21)C3(C)C (stereo not given) + C=CC(=O)N1CCN(c2nc(=O)n(-c3c(C)ccnc3C(C)C)c3nc(-c4c(O)cccc4F)c(F)cc23)C(C)C1 :: inactive
COc1cc2nccc(Oc3ccc(NC(=O)C4(C(=O)Nc5ccc(F)cc5)CC4)cc3)c2cc1OC + CNCc1ccccc1-c1csc(C(C)Nc2nc(C)nc3cc(OC)c(OC)cc23)c1 :: active
COc1cc2nccc(Oc3ccc(NC(=O)C4(C(=O)Nc5ccc(F)cc5)CC4)cc3)c2cc1OC + CC1OCC2(CCN(c3cnc(Sc4ccnc(N)c4Cl)c(N)n3)CC2)C1N :: inactive
CCNC(=O)CC1N=C(c2ccc(Cl)cc2)c2cc(OC)ccc2-n2c(C)nnc21 (stereo not given) + C=CC(=O)N1CCN(c2nc(=O)n(-c3c(C)ccnc3C(C)C)c3nc(-c4c(O)cccc4F)c(F)cc23)C(C)C1 :: inactive
